assay: clinical; settings: human, in vivo, 80 mg, C max

# smiles.code, Cmax, ng/mL
records = [
    ("C[C@]1(c2nc3c(C(N)=O)cccc3[nH]2)CCCN1", 481),
]

---

Assay: clinical
Conditions: human, in vivo, 80 mg, AUC0–8
Protocol: Six cycles of therapy were planned. Plasma samples were stored at −20 °C until shipment to AbbVie. […] Plasma concentrations of carboplatin were determined using an inductively coupled plasma mass spectrometry. Standard pharmacokinetic parameters were determined using non-compartmental methods.

# compound, AUC(0-t) (ng·h/mL)
data = [
    ("C[C@]1(c2nc3c(C(N)=O)cccc3[nH]2)CCCN1 [Veliparib]", 2140),
]
